The reported measurements were obtained from PubChem BioAssay (NCI).

Tested on: NCI/ADR-RES ovarian
Test: NCI tumour cell line growth inhibition, 48 h; in the data active means GI50 below about 0.43 µM; inactive means the rest
Labels: t (active), f (inactive)

# molecule, category
data = [
    ("N#CC1c2ccccc2C=CN1C(=O)CCCl (centres undefined)", "f"),
    ("Cc1cccc(NC(=O)c2sc3nc4c(cc3c2N)C(=O)CCC4)c1", "t"),
    ("O=C1/C(=C/c2ccc(Cl)c(Cl)c2)CN(C(=O)CCN2CCC(=NO)CC2)C/C1=C\\c1ccc(Cl)c(Cl)c1", "f"),
    ("CC1(C)OC[C@@H]([C@@]2(CO[Si](c3ccccc3)(c3ccccc3)C(C)(C)C)CC=CC(=O)O2)O1", "f"),
    ("CC(=O)ON1CCCC(P(=O)(OCOC(=O)C(C)(C)C)OCOC(=O)C(C)(C)C)C1=O (centres undefined)", "f"),
    ("CC(=O)O[C@H]1C(=O)[C@@]2(C)C([C@H](OC(=O)c3ccccc3)[C@]3(O)C[C@H](OC(=O)[C@H](O)[C@@H](NC(=O)c4ccccc4)c4ccccc4)C(C)=C1C3(C)C)[C@]1(OC(C)=O)CO[C@@H]1C[C@@H]2O (some centres undefined)", "f"),
    ("COc1cc2c(N3CCN(C(=O)Nc4ccc(OC(C)C)cc4)CC3)ncnc2cc1OCCCN1CCCCC1", "f"),
    ("COc1cc2c(cc1Nc1nc(N3CCc4ccccc43)c3cc[nH]c3n1)N(C(=O)CN(C)C)CC2", "f"),
    ("N#CC1(c2ccc(NC(=O)c3cccnc3NCc3ccncc3)cc2)CCCC1", "f"),
]

* * *

Tested on: LOX IMVI melanoma
Assay: NCI tumour cell line growth inhibition, 48 h; in the data active means GI50 below about 0.43 µM; inactive means the rest
Labels: 1 = active, -1 = inactive

# compound, category
rows = [
    ("O=C1C=C[C@H](O)[C@@]2(CO)O[C@@H]12", -1),
    ("CCNc1nc(O)c(/C=C2\\C=Nc3ncccc32)s1", -1),
    ("CSC1=Nc2c(c(C)c(C)n2COC(CO)CO)C2=NC(=O)CN12", -1),
    ("COc1ccc2c(c1)C(=O)c1c-2c(Nc2ccccc2OC)nc2ccccc12", -1),
    ("Cc1ccc2c(-c3ccnc(Nc4ccc5c(c4)OCCO5)n3)c(-c3ccc(C(F)(F)F)cc3)nn2n1", -1),
    ("CNC(=O)c1ncccc1Nc1nc(Nc2cc3c(cc2OC)CCCN3C(=O)CN(C)C)nc2[nH]ccc12", -1),
    ("OC1(c2ccc(Cl)c(C(F)(F)F)c2)CCN(CCCC(c2ccc(F)cc2)c2ccc(F)cc2)CC1", -1),
    ("COc1ccc(OC)c(/C=C/c2nc(=S)n(-c3ccc(Cl)cc3)[nH]2)c1", -1),
    ("COc1ccc2c(c1)c(-c1nc(-c3c[nH]c4ncccc34)cs1)cn2CCCN1CCOCC1", -1),
    ("Cc1c(C(=N)C(C#N)C#N)c(=N)oc2c1ccc1ccccc12", -1),
    ("CN[C@@H](C)C(=O)N[C@H]1CN(S(=O)(=O)c2cccc(S(=O)(=O)N3CC[C@H]4CC[C@@H](C(=O)NC(c5ccccc5)c5ccccc5)N4C(=O)[C@@H](NC(=O)[C@H](C)NC)C3)c2)CC[C@H]2CC[C@@H](C(=O)NC(c3ccccc3)c3ccccc3)N2C1=O", -1),
    ("O=C1NN(C2=NNC3(C(=O)N2)c2ccccc2-c2ccccc23)C(c2ccccc2)=N/C1=C/c1ccc(Cl)cc1", -1),
    ("Nc1nc2c(c3cnccc13)C(c1ccc(Cl)c(Cl)c1)Cc1cnccc1-2 (stereo not drawn)", 1),
    ("O=C(NCCNCCO)c1ccc2c(c1)oc1cc3ccccc3c(=O)n12", -1),
    ("COc1cc2c(N3CCN(C(=O)Nc4ccc(OC(C)C)cc4)CC3)ncnc2cc1OCCCN1CCCCC1", -1),
    ("c1ccc(-c2[nH]ncc2-c2ccnc(-c3ccc(OCCn4ccnc4)cc3)c2)nc1", -1),
    ("COc1cc2nc(-c3ccc(Cl)cc3)cc(OCCCN3CCOCC3)c2cc1OC", 1),
    ("O=C1c2cccc(Oc3ccccc3)c2C(=O)c2cccc(Oc3ccccc3)c21", -1),
]

* * *

Tested on: HT29 colon
Assay: NCI tumour cell line growth inhibition, 48 h
Attribute: TGI

# compound, TGI
rows = [
    ("O=c1c2ccccc2sc2c(CO)ccc(NCCN3CCCCC3)c12", "11.9 µM"),
    ("Cc1c(C(=N)C(C#N)C#N)c(=N)oc2c1ccc1ccccc12", "71.1 µM"),
    ("O=C(CCc1cc(O)cc(O)c1)NCCc1cc(OCc2ccccc2)cc(OCc2ccccc2)c1", "41.9 µM"),
    ("CN[C@@H](C)C(=O)N[C@H]1CN(S(=O)(=O)c2cccc(S(=O)(=O)N3CC[C@H]4CC[C@@H](C(=O)NC(c5ccccc5)c5ccccc5)N4C(=O)[C@@H](NC(=O)[C@H](C)NC)C3)c2)CC[C@H]2CC[C@@H](C(=O)NC(c3ccccc3)c3ccccc3)N2C1=O", "> 48.3 µM"),
    ("CN(C)CCNC(=O)c1cccc2c1Nc1ccccc1S2", "25 µM"),
    ("COc1ccc(C)cc1N1C(=O)C2ON(Cc3ccc(CC(N)=O)cc3)C(c3c4ccccc4c(Cl)c4ccccc34)C2C1=O (stereo not drawn)", "40.9 µM"),
    ("COc1cc2c(cc1Nc1nc(N3CCc4ccccc43)c3cc[nH]c3n1)N(C(=O)CN(C)C)CC2", "0.731 µM"),
    ("N#CC(C(=O)C(=O)Nc1c(Cl)cccc1Cl)c1ccccc1 (stereo not drawn)", "> 100 µM"),
    ("NS(=O)(=O)c1nnc(NC(=O)N(c2ccccc2)c2ccccc2)s1", "> 100 µM"),
    ("O=C(/C=C/c1ccc(O)c(O)c1)OCCc1ccc2ccccc2c1", "25.6 µM"),
    ("c1ccc(C2=NC3OC2c2ccccc23)cc1 (stereo not drawn)", "> 10 µM"),
    ("S=C(Cc1ccc2c(c1)Sc1ccccc1O2)N1CCOCC1", "> 100 µM"),
    ("Cc1ccc(O)cc1Nc1ccnc2ccc(S(C)(=O)=O)cc12", "2.92 µM"),
    ("O=C1C=C[C@H](O)[C@@]2(CO)O[C@@H]12", "19.7 µM"),
    ("N#CC1c2ccccc2C=CN1C(=O)CCCl (stereo not drawn)", "26.2 µM"),
    ("COc1ccc(N=Nc2c(-c3c(OC)cc4occc4c3OC)[nH]c(=O)c(C#N)c2C)cc1", "> 100 µM"),
    ("COc1cc2ccc3c4cc(OC)c(OC)cc4c[n+](C)c3c2cc1O", "> 100 µM"),
    ("CSCC[C@@H](NC(=O)[C@H](CC(C)C)NC(=O)C(Cc1cnc[nH]1)NC(=O)CNC(=O)[C@@H](NC(=O)[C@H](C)NC(=O)[C@H](Cc1c[nH]c2ccccc12)NC(=O)[C@H](CCC(N)=O)NC(=O)[C@@H](N)CC(N)=O)C(C)C)C(N)=O (stereo partly drawn)", "> 100 µM"),
]

* * *

Test system: SW-620 colon
Experiment: NCI tumour cell line growth inhibition, 48 h
assay metric: TGI (µM)

# compound, value qualifier, assay result
data = [
    ("O=C(CCc1cc(O)cc(O)c1)NCCc1cc(OCc2ccccc2)cc(OCc2ccccc2)c1", "=", 53.3),
    ("COC(=O)/C=C(\\C)CC/C=C(\\C)CCC1OC1(C)C (stereo unspecified)", "=", 28.4),
    ("COc1ccc(CNc2cnc3ccc(N)cc3n2)cc1", ">", 100),
    ("O=C(Nc1cccc(-n2cc(-c3ccncc3)c(-c3cc(O)cc(Cl)c3)n2)c1)c1ccc(N2CCOCC2)c(C(F)(F)F)c1", "=", 7.06),
    ("O=C1C=C[C@H](O)[C@@]2(CO)O[C@@H]12", "=", 5.33),
    ("CC1(C)CC(=O)C2=C(C1)C(c1ccccc1Cl)C1C(=O)CC(C)(C)CC1(O)O2 (stereo unspecified)", ">", 100),
    ("Cc1c(C(=N)C(C#N)C#N)c(=N)oc2c1ccc1ccccc12", "=", 56.1),
    ("O=[N+]([O-])c1ccc(Cl)c2c([N+](=O)[O-])cccc12", ">", 10),
    ("Cc1ccc(S(=O)(=O)OCC/C(=C\\[Si](C)(C)C)c2ccccc2)cc1", ">", 100),
    ("CN(CCN1CCCC1)C1CCc2cc(Cl)c(Cl)cc2C1 (stereo unspecified)", "=", 89),
    ("Cc1nc(N)c(N2CCN(C#N)CC2)c(=O)[nH]1", ">", 100),
    ("CCN1C(=S)N(CC)C2C1NC(=S)N2/N=C/C=C/c1ccccc1OC (stereo unspecified)", ">", 100),
    ("O=C(Nc1ccc(N=C=S)cc1Cl)c1cc(Br)cc(Br)c1O", "=", 72.3),
    ("Nc1ncc(Cc2ccc3c(c2)OCO3)c(N)n1", ">", 100),
    ("C[C@]12CC[C@H]3[C@@H](CCC4=CC(=O)CC[C@@]43C)[C@@H]1CC[C@@H]2c1csc(N)n1", "=", 20.8),
    ("CCN(CC)Cc1cc(Nc2nc(NC3CCC(N(C)C)CC3)c3ccccc3n2)ccc1OC (stereo unspecified)", "=", 13.3),
    ("COc1ccc2c(N)ncc(C#Cc3cc(C(=O)Nc4ccc(CN5CCN(C)CC5)c(C(F)(F)F)c4)cnc3C)c2c1", "=", 1.3),
    ("CN1CSC(=S)N(c2cccc(C(F)(F)F)c2)C1", ">", 100),
    ("NS(=O)(=O)c1nnc(NC(=O)N(c2ccccc2)c2ccccc2)s1", ">", 100),
    ("Cn1nccc1Nc1nccc(-c2ccn([C@H](CO)c3ccc(Cl)c(F)c3)c(=O)c2)n1", "=", 30.4),
]
